# measured on: human HER3 endogenously expressed on human cancer cells (SK-Br-3, BT-474, MCF7) (human, UniProt P21860 20-1342)
# assay comment: cell-based or functional assay
recorded endpoint: SK-Br-3 pHER3 % inhibition (%)
Numbers only, in %.

// below: answered binders
MOR12921 (antibody, human IgG1, lambda, V domains shown, Tested as IgG) VH: QVQLVQSGAEVKKPGASVKVSCKASGYTFTGYYMHWVRQAPGQGLEWMGDIDPHSGNAVYAQKFQGRVTMTRDTSISTAYMELSRLRSEDTAVYYCARGSFYTRDSYFDVWGQGTLVTVSS VL: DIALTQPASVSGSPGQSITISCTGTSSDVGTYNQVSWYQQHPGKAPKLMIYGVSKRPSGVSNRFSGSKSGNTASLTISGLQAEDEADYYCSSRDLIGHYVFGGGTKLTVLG: 68
MOR13667 (antibody, human IgG1, lambda, V domains shown) VH: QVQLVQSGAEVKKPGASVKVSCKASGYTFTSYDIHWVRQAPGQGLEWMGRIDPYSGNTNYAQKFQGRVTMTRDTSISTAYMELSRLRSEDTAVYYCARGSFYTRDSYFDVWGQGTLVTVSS VL: DIALTQPASVSGSPGQSITISCTGTSSDVGTYNQVSWYQQHPGKAPKLMIYGVSKRPSGVSNRFSGSKSGNTASLTISGLQAEDEADYYCQAWDYRQTIVFGGGTKLTVLG: 59

Pending binder:
Please give measured SK-Br-3 pHER3 % inhibition of the following entry: MOR14537 (antibody, human IgG1, lambda, V domains shown, Tested as IgG) VH: QVQLVQSGAEVKKPGASVKVSCKASGYTFTSYDIHWVRQAPGQGLEWMGRIDPYSGNTNYAQKFQGRVTMTRDTSISTAYMELSRLRSDDTAVYYCARGSFYTRDSYFDVWGQGTLVTVSS VL: QSALTQPASVSGSPGQSITISCTGTSSDVGTYNQVSWYQQHPGKAPKLMIYGVSKRPSGVSNRFSGSKSGNTASLTISGLQAEDEADYYCSSATQKPDVTVFGGGTKLTVLG
69
